- PROTOCOL DESCRIPTION: ACEA_AR_agonist_AUC_viability: ACEA Biosciences xCELLigence Real-Time Cell Analysis on Androgen Receptor Agonism for Viability (AID 2283775)
Inconclusive results are not listed. Activity calls are given as the source filed them. How the source made its calls: active means hit-call score of the fitted dose curve at least 0.9, where 1 is the maximum; inconclusive means response in the unintended direction; inactive means score below 0.9.
Possible outcomes: yes (1) (active), no (0) (inactive)

> print(dat)
                                   compound  label.class
1                      CCNc1nc(Cl)nc(NCC)n1       no (0)
2  C#CCOS(=O)OC1CCCCC1Oc1ccc(C(C)(C)C)cc1 (stereo unspecified)      yes (1)
3        Fc1ccc(Oc2ccnc3cc(Cl)cc(Cl)c23)cc1      yes (1)
4                          CCCCNC(=O)OCC#CI      yes (1)
5  CCOC(=O)C(Cl)Cc1cc(-n2nc(C)n(C(F)F)c2=O)c(F)cc1Cl (stereo unspecified)       no (0)
6  CCc1nn(C)c(C(=O)NCc2ccc(C(C)(C)C)cc2)c1Cl      yes (1)

###

- MEASURED TARGET: Estrogen receptor (Homo sapiens) (UniProt P03372)
- Sequence (P03372 whole entry, looked up): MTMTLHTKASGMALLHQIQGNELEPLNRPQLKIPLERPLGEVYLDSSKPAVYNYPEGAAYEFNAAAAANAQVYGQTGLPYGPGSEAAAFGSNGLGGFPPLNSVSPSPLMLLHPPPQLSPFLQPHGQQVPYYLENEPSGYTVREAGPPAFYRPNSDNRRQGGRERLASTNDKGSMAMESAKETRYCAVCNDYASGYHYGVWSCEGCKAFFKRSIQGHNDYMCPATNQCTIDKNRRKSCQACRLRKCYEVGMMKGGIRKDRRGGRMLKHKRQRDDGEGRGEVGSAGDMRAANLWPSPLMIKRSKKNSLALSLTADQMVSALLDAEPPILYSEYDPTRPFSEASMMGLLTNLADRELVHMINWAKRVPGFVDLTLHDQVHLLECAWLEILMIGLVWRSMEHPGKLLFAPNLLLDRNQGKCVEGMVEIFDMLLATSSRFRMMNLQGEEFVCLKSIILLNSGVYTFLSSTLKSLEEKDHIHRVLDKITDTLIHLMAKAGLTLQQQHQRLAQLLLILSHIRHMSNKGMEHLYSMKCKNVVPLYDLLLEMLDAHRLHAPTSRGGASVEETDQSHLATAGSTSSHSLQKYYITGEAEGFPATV
- PROTOCOL DESCRIPTION: CCTE_Deisenroth_AIME_384WELL_LUC_Shift: CCTE's 384-well Estrogen Receptor Transactivation Assay with AIME metabolic competence data shift (ERTA luciferase; difference in metabolism positive and negative), Deisenroth Lab (AID 2284041);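 further: shift is response with S9 minus without S9 so positive means metabolism raised ER signal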
The source made the active and inactive calls. How the source made its calls: active means hit-call score of the fitted dose curve at least 0.9, where 1 is the maximum; inactive means score below 0.9.
Possible outcomes: active, inactive

> print(dat)
                                    compound  label.class
 1                   CCNc1nc(Cl)nc(NC(C)C)n1     inactive
 2  CCc1nn(C)c(C(=O)NCc2ccc(C(C)(C)C)cc2)c1Cl     inactive
 3  CC(Oc1ccc(Cl)cc1Cl)C(=O)O (stereo not drawn)     inactive
 4  CC(C)(C)c1ccc(CSc2cnn(C(C)(C)C)c(=O)c2Cl)cc1     inactive
 5  COC(=O)N(OC)c1ccccc1COc1ccn(-c2ccc(Cl)cc2)n1     inactive
 6  CCON=C(CC)C1=C(O)CC(c2c(C)cc(C)cc2C)CC1=O (stereo not drawn)     inactive
 7  C=CCC1=C(C)C(OC(=O)C2C(C=C(C)C)C2(C)C)CC1=O (stereo not drawn)     inactive
 8                          CCCCNC(=O)OCC#CI     inactive
 9  COc1cnc(OC)n2nc(NS(=O)(=O)c3c(OCC(F)F)cccc3C(F)(F)F)nc12       active
10  C#CCOS(=O)OC1CCCCC1Oc1ccc(C(C)(C)C)cc1 (stereo not drawn)     inactive
11                O=C(O)COc1nc(Cl)c(Cl)cc1Cl     inactive
12                    N#Cc1cc(Br)c(O)c(Br)c1     inactive
13                        Oc1ccccc1-c1ccccc1     inactive

###

- Read-out: Protein phosphatase 2A (PPP2R4), PTPA (gene 5524)
- PROTOCOL DESCRIPTION: LTEA_HepaRG_PPP2R4: Life Technologies and Expression Analysis (LTEA) Assay for Protein phosphatase 2A (PPP2R4) using HepaRG (AID 2283522)
- CONDITIONS: mRNA level, 48 h; actives raise or lower the signal
The source made the active and inactive calls. The calls were made as follows: active = hit-call score of the fitted dose curve at least 0.9, where 1 is the maximum; inactive = score below 0.9.
PROPERTY MEASURED: AC50

> print(dat)
                                    compound  property.measured   reported.result
 1                      CNC(=O)ON=CC(C)(C)SC               AC50          inactive
 2                      CCNc1nc(Cl)nc(NCC)n1               AC50          inactive
 3  CCOC(=O)CC(SP(=S)(OC)OC)C(=O)OCC (centres undefined)               AC50          inactive
 4                      O=C(O)c1nc(Cl)ccc1Cl               AC50          inactive
 5              CCCCOC(=O)c1ccccc1C(=O)OCCCC               AC50          inactive
 6  C=CCC1=C(C)[C@@H](OC(=O)[C@@H]2[C@@H](C=C(C)C)C2(C)C)CC1=O               AC50          inactive
 7                     Cc1cc(Cl)ccc1OCC(=O)O               AC50          inactive
 8                    CN(C)C(=S)SSC(=S)N(C)C               AC50          inactive
 9  CC(Oc1ccc(Cl)cc1Cl)C(=O)O (centres undefined)               AC50          inactive
10  OC(c1ccc(Cl)cc1)(c1cncnc1)c1ccccc1Cl (centres undefined)               AC50  66.4 µM (active)
11                    N#Cc1cc(Br)c(O)c(Br)c1               AC50  10.7 µM (active)
12  N#Cc1nn(-c2c(Cl)cc(C(F)(F)F)cc2Cl)c(N)c1S(=O)C(F)(F)F (centres undefined)               AC50  11.5 µM (active)
13                          CCCCNC(=O)OCC#CI               AC50          inactive
14                                  CNC(=S)S               AC50          inactive
